System: cortisol-producing adrenal adenoma cultures
Protocol details: Cortisol production in primary cortisol-producing adrenal adenoma cultures
Format: cell-based, human
Condition details: basal condition, ACA (n=4); read-out: mean IC50 cortisol production
Text: To obtain primary cultures, adrenal specimens (adrenocortical adenomas, adrenal hyperplasias and adrenocortical carcinomas) were collected after adrenalectomy at the department of Surgery, Erasmus University Medical Center, Rotterdam, the Netherlands, between April 2016 and May 2018. […] Cell viability and cell amount were counted by trypan blue exclusion. […]
pIC50: −log10 of the molar value.
Measured parameter: pIC50

{"columns": ["Compound", "Measured parameter", "Reported"],
 "data": [
  ["CC(=O)N1CCN(c2ccc(OC[C@@H]3CO[C@@](Cn4ccnc4)(c4ccc(Cl)cc4Cl)O3)cc2)CC1 (relative stereo)", "pIC50", 6.96]
]}
